Measured IC50 by item
# Test system: A431(human epidermal carcinoma cells)
# measurementNotes: Cytotoxicity of compounds to tumor cell lines (MTS, 5 days)
# Format: cell-based
# experimentalParameters: A-431, 120 h, A431, 5 days
readoutName: IC50 (nM)

1. C=C1C[C@@H]2CC[C@@]34C[C@H]5O[C@H]6[C@@H](O3)[C@H]3O[C@H](CC[C@@H]3O[C@H]6[C@H]5O4)CC(=O)C[C@@H]3[C@@H](OC)[C@@H](C[C@H](O)CNC(=O)[C@H]4C[C@@H](OC)C4)O[C@H]3C[C@H]3O[C@@H](CC[C@@H]1O2)C[C@@H](C)C3=C	0.12
2. C=C1C[C@@H]2CC[C@@]34C[C@H]5O[C@H]6[C@@H](O3)[C@H]3O[C@H](CC[C@@H]3O[C@H]6[C@H]5O4)CC(=O)C[C@@H]3[C@@H](OC)[C@@H](C[C@H](O)CN(C)S(C)(=O)=O)O[C@H]3C[C@H]3O[C@@H](CC[C@@H]1O2)C[C@@H](C)C3=C	0.01
